EXPERIMENTAL_SYSTEM: 64 kDa MMP-2 (Homo sapiens, UniProt P08253)
PROTOCOL_DETAILS: OmniMMP fluorogenic substrate kinetic assay of MMP-2 activity
Format: biochemical
SETTINGS: IC50 ± SD, 1 nM ZnSO4; 50 mM Tris pH 7.6, 37 °C; 15 µM substrate
QUANTITY_MEASURED: IC50 (µM)

Examples with answers:
1. C[C@H]1c2cccc(O)c2C(=O)C2=C(O)[C@]3(O)C(=O)C(C(N)=O)=C(O)[C@@H](N(C)C)[C@@H]3[C@@H](O)[C@@H]21 | 93
2. NC(=O)c1cccc(N)c1 [3-AB, 3-Aminobenzamide] | 1000

(A) c1cnc2c(c1)ccc1cccnc12
(B) CN(C)CC(=O)Nc1ccc2[nH]c(=O)c3ccccc3c2c1
I'm curious, which of these has a smaller IC50 number: A or B ? Refer to your chosen entry by its label in the reply. B

----------
EXPERIMENTAL_SYSTEM: 64 kDa MMP-2 (Homo sapiens, UniProt P08253)
Sequence (P08253 110-660): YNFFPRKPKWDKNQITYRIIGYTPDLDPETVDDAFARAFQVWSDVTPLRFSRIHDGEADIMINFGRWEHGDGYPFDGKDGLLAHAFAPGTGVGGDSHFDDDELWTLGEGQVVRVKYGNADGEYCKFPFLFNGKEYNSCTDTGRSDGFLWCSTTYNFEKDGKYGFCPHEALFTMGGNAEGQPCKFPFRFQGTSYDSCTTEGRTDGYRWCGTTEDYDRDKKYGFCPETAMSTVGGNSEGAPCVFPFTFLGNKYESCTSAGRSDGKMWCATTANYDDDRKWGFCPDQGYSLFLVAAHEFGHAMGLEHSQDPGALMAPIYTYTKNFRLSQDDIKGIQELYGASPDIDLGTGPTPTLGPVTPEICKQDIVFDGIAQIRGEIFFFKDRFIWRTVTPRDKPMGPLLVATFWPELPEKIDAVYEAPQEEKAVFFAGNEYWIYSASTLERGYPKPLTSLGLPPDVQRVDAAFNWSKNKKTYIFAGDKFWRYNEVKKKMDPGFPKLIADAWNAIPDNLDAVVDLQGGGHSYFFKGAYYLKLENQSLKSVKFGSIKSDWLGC
PROTOCOL_DETAILS: Gelatinolytic activity of MMP-2 by gelatin zymography
Type: biochemical
QUANTITY_MEASURED: IC50 (mM)
Note: unit mM is implicit; provide only the numeric part.

Given CN(C)CC(=O)Nc1ccc2[nH]c(=O)c3ccccc3c2c1 [PJ-34] , respond with its IC50. 9.2

----------
EXPERIMENTAL_SYSTEM: 64 kDa MMP-2 (Homo sapiens, UniProt P08253)
PROTOCOL_DETAILS: OmniMMP fluorogenic substrate kinetic assay of MMP-2 activity
Assay type: biochemical
SETTINGS: IC50 ± SD, 10 µM ZnSO4; 50 mM Tris pH 7.6, 10 mM CaCl2, 0.05% Brij-35, 37 °C; 15 µM substrate
QUANTITY_MEASURED: IC50 (µM)

Examples with answers:
1) CN(C)c1ccc(O)c2c1C[C@H]1C[C@H]3[C@H](N(C)C)C(O)=C(C(N)=O)C(=O)[C@@]3(O)C(O)=C1C2=O | 57
2) NC(=O)c1cccc(N)c1 [3-AB, 3-Aminobenzamide] | 1760

(1) C[C@H]1c2cccc(O)c2C(=O)C2=C(O)[C@]3(O)C(=O)C(C(N)=O)=C(O)[C@@H](N(C)C)[C@@H]3[C@@H](O)[C@@H]21
(2) CN(C)CC(=O)Nc1ccc2[nH]c(=O)c3ccccc3c2c1
// pick larger IC50 from pair: 1 vs 2 Refer to your chosen entry by its label in the reply. 1
